- Tested on: K. pneumoniae ATCC 700603
- Format: cell-based, Klebsiella pneumoniae
- Measurement parameters: ATCC 700603, 18 h
Residues, ends and D or L forms follow the SMILES beside them. *: point of attachment. Myristoyl = CCCCCCCCCCCCCC(=O)*; Acm = CC(=O)NC*
Recorded endpoint: MIC K (µg/mL)

Known results for compounds:
Compound	Unit of measurement	MIC K
CCCCCCCCCCCC(=O)N[C@@H](CCCC)C(=O)N[C@@H](CCCNC(=N)N)C(=O)N[C@@H](CCCNC(=N)N)C(N)=O [compound 65, C12-NleRR-NH2] (HELM PEPTIDE1{[CCCCCCCCCCCC(=O)[*:2]].[Nle].R.R.[am]}$$$$V2.0)	µg/mL	256
CCCCCCCCCCCCCC(=O)N[C@@H](Cc1ccccc1)C(=O)N[C@@H](CCCNC(=N)N)C(=O)N[C@@H](CCCNC(=N)N)C(N)=O [compound 26, C14-FRR-NH2] (HELM PEPTIDE1{[CCCCCCCCCCCCCC(=O)[*:2]].F.R.R.[am]}$$$$V2.0)	µg/mL	64
CCCCCCCCCCCCCC(=O)N[C@@H](CCS(C)(=O)=O)C(=O)N[C@@H](CCCNC(=N)N)C(=O)N[C@@H](CCCNC(=N)N)C(N)=O [compound 58, C14-M(O2)RR-NH2] (HELM PEPTIDE1{[CCCCCCCCCCCCCC(=O)[*:2]].[CS(=O)(=O)CC[C@H](N[*:1])C(=O)[*:2]].R.R.[am]}$$$$V2.0)	µg/mL	256
CCCCCCCCCCCC(=O)N[C@@H](Cc1ccccc1)C(=O)N[C@@H](CCCNC(=N)N)C(=O)N[C@@H](CCCNC(=N)N)C(N)=O [compound 25, C12-FRR-NH2] (HELM PEPTIDE1{[CCCCCCCCCCCC(=O)[*:2]].F.R.R.[am]}$$$$V2.0)	µg/mL	256
CCCCCCCCCCCCCC(=O)N[C@@H](CCCCN)C(=O)N[C@@H](CCCNC(=N)N)C(=O)N[C@@H](CCCNC(=N)N)C(N)=O [compound 42, C14-KRR-NH2] (HELM PEPTIDE1{[CCCCCCCCCCCCCC(=O)[*:2]].K.R.R.[am]}$$$$V2.0)	µg/mL	128

[a] CCCCCCCCCCCCCC(=O)N[C@@H](CSCNC(C)=O)C(=O)N[C@@H](CCCNC(=N)N)C(=O)N[C@@H](CCCNC(=N)N)C(N)=O [compound 14, C14-C(Acm)RR-NH2] (Myristoyl-Cys(Acm)-Arg-Arg-NH2)
[b] CCCCCCCCCCCCCCCCCC(=O)N[C@@H](CCCNC(=N)N)C(=O)N[C@@H](CCCNC(=N)N)C(N)=O [compound 6, C18-RR-NH2, reference compound] (HELM PEPTIDE1{[CCCCCCCCCCCCCCCCCC(=O)[*:2]].R.R.[am]}$$$$V2.0)
[c] CCCCCCCCCCCCCC(=O)N[C@H](C(=O)N[C@@H](CCCNC(=N)N)C(=O)N[C@@H](CCCNC(=N)N)C(N)=O)[C@@H](C)CC [compound 38, C14-IRR-NH2] (HELM PEPTIDE1{[CCCCCCCCCCCCCC(=O)[*:2]].I.R.R.[am]}$$$$V2.0)
Sort entries by MIC K from minimum to maximum value. // rank by listing labels in the order requested
b, c, a
(b: 16 µg/mL, c: 64 µg/mL, a: 256 µg/mL)

Hey, just so you know, these numbers are from paper PMC7024302.
